APPLIED_CONDITIONS: in n-butanol, 283.15 K
QUANTITY_MEASURED: solubility (mole fraction)

1) COC(=O)Nc1nc2ccc(Sc3ccccc3)cc2[nH]1; 8.71e-05

====

APPLIED_CONDITIONS: in methanol, 303.15 K
QUANTITY_MEASURED: solubility (mole fraction)

1. COC(=O)Nc1nc2ccc(Sc3ccccc3)cc2[nH]1; 5.54e-05

====

APPLIED_CONDITIONS: in n-butanol, 313.15 K
QUANTITY_MEASURED: solubility (mole fraction)

1) COC(=O)Nc1nc2ccc(Sc3ccccc3)cc2[nH]1; 0.000143

====

APPLIED_CONDITIONS: in isopropanol, 273.15 K
QUANTITY_MEASURED: solubility (mole fraction)

1) COC(=O)Nc1nc2ccc(Sc3ccccc3)cc2[nH]1; 2.01e-05

====

APPLIED_CONDITIONS: in ethanol, 278.15 K
QUANTITY_MEASURED: solubility (mole fraction)

1) COC(=O)Nc1nc2ccc(Sc3ccccc3)cc2[nH]1; 4.62e-05

====

APPLIED_CONDITIONS: in methanol, 283.15 K
QUANTITY_MEASURED: solubility (mole fraction)

1) COC(=O)Nc1nc2ccc(Sc3ccccc3)cc2[nH]1; 4.28e-05

====

APPLIED_CONDITIONS: in n-butanol, 293.15 K
QUANTITY_MEASURED: solubility (mole fraction)

1) COC(=O)Nc1nc2ccc(Sc3ccccc3)cc2[nH]1; 0.000102

====

APPLIED_CONDITIONS: in methanol, 313.15 K
QUANTITY_MEASURED: solubility (mole fraction)

1. COC(=O)Nc1nc2ccc(Sc3ccccc3)cc2[nH]1; 6.33e-05

====

APPLIED_CONDITIONS: in acetone, 293.15 K
QUANTITY_MEASURED: solubility (mole fraction)

1. COC(=O)Nc1nc2ccc(Sc3ccccc3)cc2[nH]1; 0.000209

====

APPLIED_CONDITIONS: in acetone, 298.15 K
QUANTITY_MEASURED: solubility (mole fraction)

1. COC(=O)Nc1nc2ccc(Sc3ccccc3)cc2[nH]1; 0.000225

====

APPLIED_CONDITIONS: in ethyl acetate, 298.15 K
QUANTITY_MEASURED: solubility (mole fraction)

1) COC(=O)Nc1nc2ccc(Sc3ccccc3)cc2[nH]1; 0.000533

====

APPLIED_CONDITIONS: in methanol, 273.15 K
QUANTITY_MEASURED: solubility (mole fraction)

1) COC(=O)Nc1nc2ccc(Sc3ccccc3)cc2[nH]1; 3.69e-05

====

APPLIED_CONDITIONS: in n-propanol, 278.15 K
QUANTITY_MEASURED: solubility (mole fraction)

1. COC(=O)Nc1nc2ccc(Sc3ccccc3)cc2[nH]1; 6.58e-05

====

APPLIED_CONDITIONS: in isopropanol, 303.15 K
QUANTITY_MEASURED: solubility (mole fraction)

1) COC(=O)Nc1nc2ccc(Sc3ccccc3)cc2[nH]1; 4.62e-05

====

APPLIED_CONDITIONS: in n-propanol, 313.15 K
QUANTITY_MEASURED: solubility (mole fraction)

1) COC(=O)Nc1nc2ccc(Sc3ccccc3)cc2[nH]1; 0.000137
